Origin of values: patent US4288609A

- Tested on: Candida Albicans SKF 2270
- Assay summary: Speed of sterilising action, Candida Albicans (Table 3)
- Format: cell-based
- Test settings: 0.1 g/l
Quantity: sterilization time

INSERT INTO results (compound, recorded_measurement) VALUES
  ('CCCCCCCCCCCCCCCC[n+]1ccccc1 [Cetyl pyridine chloride, cetyl pyridine chloride, reference compound]', '60 min'),
  ('CCCCCCCCCC[N+](C)(C)CCOC(=O)C12CC3CC(CC(C3)C1)C2 (single isomer, unassigned)', '30 min'),
  ('CCCCCCCCCCCC[N+](C)(C)CCOC(=O)C12CC3CC(CC(C3)C1)C2', '30 min'),
  ('CCCCCCCCCCCC[N+](C)(C)CCNC(=O)C12CC3CC(CC(C3)C1)C2', '60 min');
